Data credit: PubChem BioAssay AID652126

Tested on: Nuclear hormone receptor DAF-12 (Strongyloides stercoralis)
protocol.details: S. stercoralis DAF-12 nuclear receptor activators, primary screen, cell-based, luminescence, HEK293, GRIP1 co-expression, lit1-tk-luc (AID 652126)
condition.notes: HEK293 ssDAF-12/GRIP1 lit1-tk-luc reporter, at 6.8 µM, % of 3 µM dafachronic acid response
Screen size: about 370,000 compounds; about 3,700 (1%) were called active.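 Rule for the calls: active = activation above the mean over all tested compounds plus 3 SD (cut at about 0.9% in these data); inactive = the rest.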 This excerpt belongs to a sample that is enriched for actives.
Classes used: active, inactive

# compound, target.desc, class.assignment
measured = [
    ("Cc1ccc(NC(=O)CN2CCc3ccccc3C2)cc1C", "Nuclear hormone receptor DAF-12 (Strongyloides stercoralis)", "active"),
    ("CC(C)CNc1cccc2c1S(=O)(=O)N(Cc1cn(Cc3ccccc3C(F)(F)F)nn1)Cc1ccccc1O2", "Nuclear hormone receptor DAF-12 (Strongyloides stercoralis)", "inactive"),
    ("CCC1C(=O)c2ccccc2N(C)C1=O (stereo not drawn)", "Nuclear hormone receptor DAF-12 (Strongyloides stercoralis)", "inactive"),
    ("Brc1ccccc1C1N=C(c2ccccc2)NO1 (stereo not drawn)", "Nuclear hormone receptor DAF-12 (Strongyloides stercoralis)", "active"),
    ("CN1C(=O)/C(=C\\c2cc(Br)cs2)c2ccccc21", "Nuclear hormone receptor DAF-12 (Strongyloides stercoralis)", "active"),
    ("O=C1Nc2ccccc2C1=NN=Cc1ccco1", "Nuclear hormone receptor DAF-12 (Strongyloides stercoralis)", "inactive"),
    ("COc1ccccc1NC(=O)c1cc(Cl)nnc1Cl", "Nuclear hormone receptor DAF-12 (Strongyloides stercoralis)", "inactive"),
    ("Cc1ccccc1NC(=O)Cn1nnc(-c2ccccc2F)n1", "Nuclear hormone receptor DAF-12 (Strongyloides stercoralis)", "inactive"),
    ("O=C(CN1CCC(NC(=O)NCc2ccccc2)CC1)Nc1ccc2c(c1)OCCO2", "Nuclear hormone receptor DAF-12 (Strongyloides stercoralis)", "inactive"),
    ("C=C(C)C#CC(Cc1ccccc1)NCC1CC1 (stereo not drawn)", "Nuclear hormone receptor DAF-12 (Strongyloides stercoralis)", "inactive"),
    ("CCC(CO)Nc1cccc2c1S(=O)(=O)N(Cc1cn(Cc3ccccc3C(F)(F)F)nn1)Cc1ccccc1O2 (stereo not drawn)", "Nuclear hormone receptor DAF-12 (Strongyloides stercoralis)", "inactive"),
    ("Cc1ccc(-n2c(SCC(=O)Nc3cccc4ccccc34)nnc2-c2ccccn2)cc1", "Nuclear hormone receptor DAF-12 (Strongyloides stercoralis)", "inactive"),
    ("N/C(=N\\OC(=O)Nc1ccccc1)c1ccno1", "Nuclear hormone receptor DAF-12 (Strongyloides stercoralis)", "active"),
    ("O=C(Nc1ccc(Br)cc1)OCCN1C(=O)CCC12CCC(c1ccccc1)CC2 (stereo not drawn)", "Nuclear hormone receptor DAF-12 (Strongyloides stercoralis)", "inactive"),
    ("COCCCNC(=O)C[C@H]1C[C@@]2(C(=O)OC)C(=C[C@H](C(C)(C)C)O[C@@H]2C)N(Cc2ccc(Cl)cc2Cl)C1=O", "Nuclear hormone receptor DAF-12 (Strongyloides stercoralis)", "inactive"),
    ("O=C(Nc1ccc(F)cc1)c1cc2c(s1)CCCC2", "Nuclear hormone receptor DAF-12 (Strongyloides stercoralis)", "inactive"),
    ("CCOC(=O)N1CCN(C(=O)C[C@H]2C[C@@]3(C(=O)OC)C(=C[C@H](C(C)(C)C)O[C@@H]3C)N(Cc3ccc(Cl)cc3Cl)C2=O)CC1", "Nuclear hormone receptor DAF-12 (Strongyloides stercoralis)", "inactive"),
    ("COCCCNc1nc2ccccc2nc1NS(=O)(=O)c1ccc(F)cc1", "Nuclear hormone receptor DAF-12 (Strongyloides stercoralis)", "inactive"),
    ("Cc1ccc(S(=O)(=O)Nc2nc3ccccc3nc2N2CCc3ccccc3C2)cc1", "Nuclear hormone receptor DAF-12 (Strongyloides stercoralis)", "active"),
    ("COC(=O)[C@]12C[C@H](CC(=O)NCCc3ccccc3OC)C(=O)N(Cc3ccco3)C1=C[C@H](C(C)C)O[C@@H]2C1CC1", "Nuclear hormone receptor DAF-12 (Strongyloides stercoralis)", "inactive"),
    ("CCOC(=O)c1c(NC(=S)Nc2ccccc2C)sc2c1CCC2", "Nuclear hormone receptor DAF-12 (Strongyloides stercoralis)", "active"),
    ("C=C(C)C1CC23C(=O)C4(C(=O)c5ccccc5)C[C@@]5(C)CCC(CC2C1(C)C)(C4=O)C35OC (stereo partly drawn)", "Nuclear hormone receptor DAF-12 (Strongyloides stercoralis)", "inactive"),
    ("O=C(Nc1ccc2c(c1)CCC2)c1ccc(Br)s1", "Nuclear hormone receptor DAF-12 (Strongyloides stercoralis)", "active"),
    ("CC(C)c1cccc(-c2csc(C(O)c3ccccc3)n2)c1 (stereo not drawn)", "Nuclear hormone receptor DAF-12 (Strongyloides stercoralis)", "inactive"),
    ("COc1ccc(Cl)cc1NC(=O)C(C)N1CCc2ccccc21 (stereo not drawn)", "Nuclear hormone receptor DAF-12 (Strongyloides stercoralis)", "inactive"),
    ("CCOC(=O)c1c(NC(=O)C2(C)Cc3ccccc3C(=O)O2)sc2c1CCCC2 (stereo not drawn)", "Nuclear hormone receptor DAF-12 (Strongyloides stercoralis)", "inactive"),
    ("Cc1ccc(S(=O)(=O)C(C#N)c2nc3ccccc3nc2N2CCCC2)cc1C (stereo not drawn)", "Nuclear hormone receptor DAF-12 (Strongyloides stercoralis)", "inactive"),
    ("C=CS(=O)(=O)N(Cc1nnn(Cc2ccccc2)c1Br)[C@H](C(=O)OC)C(C)C", "Nuclear hormone receptor DAF-12 (Strongyloides stercoralis)", "inactive"),
    ("CN(C)/C=C1/C(=O)Nc2ccccc21", "Nuclear hormone receptor DAF-12 (Strongyloides stercoralis)", "active"),
    ("C=CCN1[C@H](CC(C)C)COc2cccc(N3CCCC3)c2S1(=O)=O", "Nuclear hormone receptor DAF-12 (Strongyloides stercoralis)", "inactive"),
    ("Cc1c(NC(=O)CN(C)CC(=O)Nc2ccc(F)c(F)c2F)c(=O)n(-c2ccccc2)n1C", "Nuclear hormone receptor DAF-12 (Strongyloides stercoralis)", "inactive"),
    ("CN(CCO)S(=O)(=O)c1ccc2c(c1)C(=O)c1cc(S(=O)(=O)N(C)CCO)ccc1-2", "Nuclear hormone receptor DAF-12 (Strongyloides stercoralis)", "inactive"),
    ("CC(C)(COC(=O)Nc1ccccc1)COC(=O)Nc1ccccc1", "Nuclear hormone receptor DAF-12 (Strongyloides stercoralis)", "inactive"),
    ("Nc1ccc(C(=O)Nc2ccccc2N)cc1", "Nuclear hormone receptor DAF-12 (Strongyloides stercoralis)", "active"),
    ("O=C(CN1CCc2ccccc2C1)Nc1cccc(S(=O)(=O)N2CCOCC2)c1", "Nuclear hormone receptor DAF-12 (Strongyloides stercoralis)", "inactive"),
    ("CN1C(=O)/C(=N/OC(=O)c2ccccc2Br)c2ccccc21", "Nuclear hormone receptor DAF-12 (Strongyloides stercoralis)", "inactive"),
    ("CC(C)CNC(=O)OCc1cn(Cc2ccc(F)cc2)nn1", "Nuclear hormone receptor DAF-12 (Strongyloides stercoralis)", "inactive"),
    ("O=C(Nc1ccccc1C(=O)N1CCOCC1)c1ccc(Cl)cc1", "Nuclear hormone receptor DAF-12 (Strongyloides stercoralis)", "inactive"),
    ("O=C(NCc1cccs1)C1CCN(S(=O)(=O)c2ccccc2[N+](=O)[O-])CC1", "Nuclear hormone receptor DAF-12 (Strongyloides stercoralis)", "inactive"),
    ("C[C@H]1[C@H](NC(=O)c2cccc(N(C)C)c2)CC[C@@]23CCCN2C(=O)CCC[C@@H]13", "Nuclear hormone receptor DAF-12 (Strongyloides stercoralis)", "inactive"),
    ("Cc1ccc(NC(=O)CSc2nnc(COc3ccccc3C)o2)cc1", "Nuclear hormone receptor DAF-12 (Strongyloides stercoralis)", "inactive"),
    ("COc1ccccc1NC(=O)c1ccc(C)s1", "Nuclear hormone receptor DAF-12 (Strongyloides stercoralis)", "active"),
    ("C=CCN(C)CC#Cc1ccccc1", "Nuclear hormone receptor DAF-12 (Strongyloides stercoralis)", "inactive"),
]
